biological target: Factor X (FX), P00742
Sequence (P00742 whole entry, looked up): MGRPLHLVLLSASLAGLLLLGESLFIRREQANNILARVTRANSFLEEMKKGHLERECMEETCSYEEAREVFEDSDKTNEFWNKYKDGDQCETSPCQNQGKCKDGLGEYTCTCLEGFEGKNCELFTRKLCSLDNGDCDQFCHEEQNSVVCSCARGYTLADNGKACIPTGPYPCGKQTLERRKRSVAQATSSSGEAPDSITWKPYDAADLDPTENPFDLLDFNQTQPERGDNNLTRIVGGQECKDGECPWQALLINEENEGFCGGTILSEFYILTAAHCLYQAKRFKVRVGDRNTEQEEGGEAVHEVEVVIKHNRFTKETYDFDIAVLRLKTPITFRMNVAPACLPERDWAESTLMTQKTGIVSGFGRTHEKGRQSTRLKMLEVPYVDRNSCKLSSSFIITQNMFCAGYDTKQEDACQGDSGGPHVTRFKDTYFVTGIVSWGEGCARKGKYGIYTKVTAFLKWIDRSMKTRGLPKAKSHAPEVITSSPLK
List of KM values.
Give the number; µM is assumed, so skip it.

What measured KM goes with FIXa R318Y/R338E/R403E/E410N/T412A (protein) chain 1: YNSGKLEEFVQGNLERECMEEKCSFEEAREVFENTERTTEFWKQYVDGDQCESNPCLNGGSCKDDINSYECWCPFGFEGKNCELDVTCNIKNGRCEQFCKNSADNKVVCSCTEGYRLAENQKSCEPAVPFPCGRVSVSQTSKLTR chain 2: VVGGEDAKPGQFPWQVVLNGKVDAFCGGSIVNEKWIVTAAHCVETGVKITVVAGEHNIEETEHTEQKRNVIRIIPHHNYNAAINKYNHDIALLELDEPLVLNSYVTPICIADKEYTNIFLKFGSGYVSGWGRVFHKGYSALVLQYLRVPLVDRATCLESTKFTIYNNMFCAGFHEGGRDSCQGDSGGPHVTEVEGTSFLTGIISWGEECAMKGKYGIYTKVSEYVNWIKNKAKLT ?
0.0335

Also FIXa-R318Y/R338E/T343R/E410N (protein) chain 1: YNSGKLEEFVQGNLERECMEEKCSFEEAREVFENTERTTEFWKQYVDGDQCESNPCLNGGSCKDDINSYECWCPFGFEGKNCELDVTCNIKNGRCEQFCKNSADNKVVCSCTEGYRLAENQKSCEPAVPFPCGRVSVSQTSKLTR chain 2: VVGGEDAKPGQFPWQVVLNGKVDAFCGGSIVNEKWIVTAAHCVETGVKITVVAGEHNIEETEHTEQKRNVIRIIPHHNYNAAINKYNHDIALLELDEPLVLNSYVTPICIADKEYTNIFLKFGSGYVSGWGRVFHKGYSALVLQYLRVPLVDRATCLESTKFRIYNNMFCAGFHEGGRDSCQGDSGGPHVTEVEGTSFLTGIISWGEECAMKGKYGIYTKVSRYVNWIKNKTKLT ?
0.0164

Also FIXa-R318Y/R338E/Y345A/N346D/R403E/E410N (protein) chain 1: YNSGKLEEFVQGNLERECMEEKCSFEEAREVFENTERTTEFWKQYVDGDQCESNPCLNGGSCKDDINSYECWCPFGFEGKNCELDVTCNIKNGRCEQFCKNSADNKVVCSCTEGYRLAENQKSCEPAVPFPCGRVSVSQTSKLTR chain 2: VVGGEDAKPGQFPWQVVLNGKVDAFCGGSIVNEKWIVTAAHCVETGVKITVVAGEHNIEETEHTEQKRNVIRIIPHHNYNAAINKYNHDIALLELDEPLVLNSYVTPICIADKEYTNIFLKFGSGYVSGWGRVFHKGYSALVLQYLRVPLVDRATCLESTKFTIADNMFCAGFHEGGRDSCQGDSGGPHVTEVEGTSFLTGIISWGEECAMKGKYGIYTKVSEYVNWIKNKTKLT ?
0.0565

Also FIXa-K247N/N249S/R318Y/R338E/T343R/R403E/E410N (protein) chain 1: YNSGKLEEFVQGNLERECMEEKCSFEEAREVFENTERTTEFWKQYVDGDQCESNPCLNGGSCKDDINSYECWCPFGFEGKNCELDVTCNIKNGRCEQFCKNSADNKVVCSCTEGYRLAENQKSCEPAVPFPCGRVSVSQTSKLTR chain 2: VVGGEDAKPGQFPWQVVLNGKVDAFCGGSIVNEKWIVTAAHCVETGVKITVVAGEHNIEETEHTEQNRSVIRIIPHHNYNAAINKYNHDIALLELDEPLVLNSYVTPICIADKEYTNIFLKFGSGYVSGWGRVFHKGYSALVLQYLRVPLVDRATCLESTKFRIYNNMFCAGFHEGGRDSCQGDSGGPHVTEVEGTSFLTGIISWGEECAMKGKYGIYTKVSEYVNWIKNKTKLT ?
0.0292

Cited source for all entries: patent US20210230570
